# SUBJECT OF TEST: T1, Recombinant mouse MMR (R&D systems) (mouse, UniProt Q61830 20-1388)
# T1 construct: Bought recombinant extracellular portion of mouse MMR with a C-terminal His tag; It was immobilized on the CM5 chip for SPR and coated on plates for PE-ELISA; The SPR methods say only 'MMR'; also called mMMR; recombinant MMR
# T1 sequence: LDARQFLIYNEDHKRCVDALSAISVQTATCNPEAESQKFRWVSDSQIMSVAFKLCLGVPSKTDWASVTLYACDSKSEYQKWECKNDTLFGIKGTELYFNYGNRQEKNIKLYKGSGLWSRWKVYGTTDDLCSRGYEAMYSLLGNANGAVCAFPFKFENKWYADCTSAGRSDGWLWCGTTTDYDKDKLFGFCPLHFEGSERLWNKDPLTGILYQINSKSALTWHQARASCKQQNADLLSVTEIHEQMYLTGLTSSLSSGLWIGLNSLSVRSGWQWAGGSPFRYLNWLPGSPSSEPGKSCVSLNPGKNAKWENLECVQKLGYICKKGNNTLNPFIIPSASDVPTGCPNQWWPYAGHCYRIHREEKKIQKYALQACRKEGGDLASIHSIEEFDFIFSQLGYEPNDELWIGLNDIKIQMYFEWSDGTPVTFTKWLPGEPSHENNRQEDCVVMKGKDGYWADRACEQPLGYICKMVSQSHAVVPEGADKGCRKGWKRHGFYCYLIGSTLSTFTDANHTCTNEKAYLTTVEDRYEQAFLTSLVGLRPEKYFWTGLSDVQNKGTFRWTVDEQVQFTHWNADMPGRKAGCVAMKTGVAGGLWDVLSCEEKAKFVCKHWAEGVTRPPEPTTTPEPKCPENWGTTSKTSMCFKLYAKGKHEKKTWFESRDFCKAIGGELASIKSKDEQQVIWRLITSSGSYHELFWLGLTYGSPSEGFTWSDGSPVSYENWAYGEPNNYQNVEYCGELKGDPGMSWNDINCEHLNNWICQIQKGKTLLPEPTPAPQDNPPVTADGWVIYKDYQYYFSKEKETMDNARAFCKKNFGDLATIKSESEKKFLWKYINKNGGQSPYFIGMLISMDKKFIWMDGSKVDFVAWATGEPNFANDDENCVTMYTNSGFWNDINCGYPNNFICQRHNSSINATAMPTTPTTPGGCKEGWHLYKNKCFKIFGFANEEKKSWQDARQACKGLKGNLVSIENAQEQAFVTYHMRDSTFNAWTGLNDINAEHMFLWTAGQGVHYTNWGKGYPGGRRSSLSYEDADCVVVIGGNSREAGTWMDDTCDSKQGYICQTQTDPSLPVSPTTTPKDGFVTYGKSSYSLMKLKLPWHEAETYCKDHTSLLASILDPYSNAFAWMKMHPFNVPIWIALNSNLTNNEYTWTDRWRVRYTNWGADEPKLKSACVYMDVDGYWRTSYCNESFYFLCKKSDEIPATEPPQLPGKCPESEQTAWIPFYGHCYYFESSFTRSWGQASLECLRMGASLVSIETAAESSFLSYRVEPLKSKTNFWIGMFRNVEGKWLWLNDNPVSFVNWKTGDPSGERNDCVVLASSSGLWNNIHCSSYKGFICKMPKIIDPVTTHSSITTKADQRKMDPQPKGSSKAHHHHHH
# ASSAY EXPLANATION: PE-ELISA, periplasmic extract on coated mouse MMR
PARAMETER MEASURED: binding result

{"columns": ["BINDER", "VALUE OBSERVED"],
 "data": [
  ["NbhmMMRm3.49 (VHH, Tested as a periplasmic extract in PE-ELISA) VHH: QVQLQESGGGLVQPGGSLRLSCAASGFSLDYYAIGWFRQAPGKEREGISCISYKGGSTTYADSVKGRFTISKDNAKNTAYLQMNSLKPEDTGIYSCAAGFVCYNYDYWGQGTQVTVSS", "binds"],
  ["NbhmMMRm6.71 (VHH, Tested as a periplasmic extract in PE-ELISA) VHH: QVQLQESGGGLVQAGGSLRLSCAASGGTFDDSVIGWFRQAPGKEREGVSCISSNDGTTHYASPVKGRFTISSDNAKNTVYLQMNSLKPEDTAVYYCAAETPSIGSPCTSASYDYWGQGTQVTVSS", "binds"],
  ["NbhmMMRm10.79 (VHH, Tested as a periplasmic extract in PE-ELISA) VHH: QVQLQESGGGLVQPGGSLKLSCAASGSIFSIKTMGWYRQAPGKQRELVAAVSSGGSTNYADSVKGRFTISRDNAKNAVYLQMNSLKPEDTAVYYCNADGVVAWDQPYDNYWGQGTQVTVSS", "binds"]
]}
